# measurement_target: pepsin (Sus scrofa)
# Sequence (P00791 60-385): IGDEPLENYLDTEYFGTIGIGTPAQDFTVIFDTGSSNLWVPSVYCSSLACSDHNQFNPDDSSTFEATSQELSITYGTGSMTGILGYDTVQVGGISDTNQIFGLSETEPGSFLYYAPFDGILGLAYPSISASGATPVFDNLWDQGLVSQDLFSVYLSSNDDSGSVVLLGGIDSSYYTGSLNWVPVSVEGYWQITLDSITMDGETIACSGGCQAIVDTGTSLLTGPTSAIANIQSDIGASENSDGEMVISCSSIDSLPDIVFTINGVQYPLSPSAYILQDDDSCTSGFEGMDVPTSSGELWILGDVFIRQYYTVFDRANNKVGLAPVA
# method_summary: in vitro
# measurement_context: simulated gastric fluid, pH 1.2
Starred links: 1 amine or outer side, 2 acyl side, 3 side chain; linkers in the order of their positions; H or OH if unused. Non-standard residues stand in square brackets, D forms with d. Residues, ends and D or L forms follow the SMILES beside them. X1 = CC(C)C[C@H](NC(=S)[C@H](Cc1ccc(O)cc1)N[*:1])C(=O)[*:2]; X6 = O=C([C@H](Cc1ccc(O)cc1)NC(=S)[C@H]1CCCN1[*:1])[*:2]; X2 = CC(C)C[C@H](NC(=S)[C@@H](CC(C)C)N[*:1])C(=O)[*:2]; X3 = CC(C)C[C@H](N[*:1])C(=S)N[C@H](CC(C)C)C(=O)[*:2]; X5 = CC(C)C[C@H](NC(=S)[C@H](CC(C)C)N[*:1])C(=O)[*:2]; X4 = CC(C)C[C@H](N[*:1])C(=S)N1CCC[C@@H]1C(=O)[*:2]; NMeY = CN[C@@H](Cc1ccc(O)cc1)C(=O)O; NMeL = CN[C@@H](CC(C)C)C(=O)O; dNMeL = CN[C@H](CC(C)C)C(=O)O
measure_name: remaining at 12 h (%)

# compound, numeric_result
records = [
    ("CC(C)C[C@@H]1NC(=O)[C@@H](CC(C)C)NC(=O)[C@H](CC(C)C)N(C)C(=O)[C@H](Cc2ccc(O)cc2)NC(=O)[C@H]2CCCN2C(=O)[C@H](CC(C)C)NC1=O [10k] (cyclo(LL[dP]Y[NMeL][dL]))", 7),
    ("CC(C)C[C@@H]1NC(=O)[C@H](Cc2ccc(O)cc2)NC(=O)[C@H]2CCCN2C(=S)[C@H](CC(C)C)NC(=O)[C@H](CC(C)C)NC(=O)[C@@H](CC(C)C)NC1=O [10c] (cyclo(L[dL]L[X4]Y))", 5),
    ("CC(C)C[C@@H]1NC(=O)[C@@H](CC(C)C)N(C)C(=O)[C@H](CC(C)C)NC(=O)[C@H](Cc2ccc(O)cc2)NC(=O)[C@H]2CCCN2C(=O)[C@H](CC(C)C)NC1=O [10g] (cyclo(LL[dP]YL[dNMeL]))", 0),
    ("CC(C)C[C@@H]1NC(=O)[C@H](Cc2ccc(O)cc2)NC(=O)[C@H]2CCCN2C(=O)[C@H](CC(C)C)NC(=O)[C@H](CC(C)C)NC(=S)[C@@H](CC(C)C)NC1=O [10a] (cyclo(L[dP]YL[X2]))", 11),
]

[1] CC(C)C[C@@H]1NC(=O)[C@H](Cc2ccc(O)cc2)NC(=O)[C@H]2CCCN2C(=O)[C@H](CC(C)C)NC(=O)[C@H](CC(C)C)N(C)C(=O)[C@@H](CC(C)C)NC1=O [10h] (cyclo(L[dL][NMeL]L[dP]Y))
[2] CC(C)C[C@@H]1NC(=O)[C@@H](CC(C)C)NC(=O)[C@H](CC(C)C)NC(=O)[C@H](Cc2ccc(O)cc2)N(C)C(=O)[C@H]2CCCN2C(=O)[C@H](CC(C)C)NC1=O [10j] (cyclo(LL[dP][NMeY]L[dL]))
[3] CC(C)C[C@@H]1NC(=O)[C@H](Cc2ccc(O)cc2)NC(=O)[C@H]2CCCN2C(=O)[C@H](CC(C)C)N(C)C(=O)[C@H](CC(C)C)NC(=O)[C@@H](CC(C)C)NC1=O [10i] (cyclo(L[NMeL][dP]YL[dL]))
[4] CC(C)C[C@@H]1NC(=O)[C@@H](CC(C)C)NC(=O)[C@H](CC(C)C)NC(=S)[C@H](Cc2ccc(O)cc2)NC(=O)[C@H]2CCCN2C(=O)[C@H](CC(C)C)NC1=O [10e] (cyclo(LL[dP][X1][dL]))
[5] CC(C)C[C@@H]1NC(=O)[C@H](Cc2ccc(O)cc2)NC(=S)[C@H]2CCCN2C(=O)[C@H](CC(C)C)NC(=O)[C@H](CC(C)C)NC(=O)[C@@H](CC(C)C)NC1=O [10d] (cyclo(LL[X6]L[dL]))
Order these by remaining at 12 h, descending, and give the full ranking. A ranking is expressed here by listing the labels in the requested order.
4, 5, 1, 3, 2

[a] CC(C)C[C@@H]1NC(=O)[C@H](Cc2ccc(O)cc2)NC(=O)[C@H]2CCCN2C(=O)[C@H](CC(C)C)NC(=S)[C@H](CC(C)C)NC(=O)[C@@H](CC(C)C)NC1=O [10b] (cyclo(L[dL][X5][dP]Y))
[b] CC(C)C[C@@H]1NC(=O)[C@H](Cc2ccc(O)cc2)NC(=O)[C@H]2CCCN2C(=O)[C@H](CC(C)C)NC(=O)[C@H](CC(C)C)NC(=O)[C@@H](CC(C)C)NC1=O [compound 10, cyclo(-D-Leu^1-Leu-Leu-D-Pro-Tyr-Leu^6-)] (cyclo(LL[dP]YL[dL]))
[c] CC(C)C[C@@H]1NC(=O)[C@@H](CC(C)C)NC(=S)[C@H](CC(C)C)NC(=O)[C@H](Cc2ccc(O)cc2)NC(=O)[C@H]2CCCN2C(=O)[C@H](CC(C)C)NC1=O [10f] (cyclo(LL[dP]Y[X3]))
Order these by remaining at 12 h, descending, and give the full ranking. A ranking is expressed here by listing the labels in the requested order.
c, a, b
(c: 15%, a: 10%, b: 2%)
